# Test system: SW-620 colon
# METHOD: NCI tumour cell line growth inhibition, 48 h; in the data active = GI50 below about 0.43 µM; inactive = the rest
Classes to choose from: yes (1) for active, no (0) for inactive

Ask: For CN1CCN(C(=O)OCc2nc3c(N4CCOCC4)nc(Cl)nc3n2C)CC1 , what call appears in the results of this test?
Reply: no (0)

Ask: What do we get for N#Cc1ccc(O)c(C2=NCC(c3cccc(Oc4ccccc4)c3)O2)c1 (stereo unspecified) ?
Reply: no (0)

Ask: What do we get for CS(=O)(=O)c1ccc([C@H]2O[C@@H](CO)C[C@]2(O)c2ccc(S(C)(=O)=O)cc2)cc1 ?
Reply: no (0)

Ask: What do we get for [Cl-].[Dy+3].[O-]/N=C(\c1ccccc1)c1ccccn1.[O-]/N=C(\c1ccccc1)c1ccccn1.[O-]/N=C(\c1ccccc1)c1ccccn1 ?
Reply: no (0)

Ask: What do we get for O=C1Nc2c(C(F)(F)F)cccc2[C@]1(c1ccc(O)cc1)c1ccc(OC(F)(F)F)cc1 ?
Reply: no (0)

Ask: What do we get for CCN(CC)c1ccc(/C=C/c2ccc3cc(C)ccc3[n+]2CC)cc1 ?
Reply: yes (1)

Ask: What do we get for CC[C@]1(O)C[C@@H]2CN(CCc3c([nH]c4ccccc34)[C@@](C(=O)OC)(c3cc4c(cc3OC)N(C)[C@H]3[C@@](O)(C(=O)OC)[C@H](OC(C)=O)[C@]5(CC)C=CCN6CC[C@]43[C@@H]65)C2)C1 ?
Reply: yes (1)

Ask: What do we get for OCC(O)CC[CH2][Sn]([Br])([c]1ccccc1)[c]1ccccc1 (stereo unspecified) ?
Reply: no (0)

Ask: What do we get for Oc1c(CN2CCC(N3CCCCC3)CC2)cc(Cc2cc(CN3CCC(N4CCCCC4)CC3)c(O)c3ncccc23)c2cccnc12 ?
Reply: no (0)

Ask: What do we get for O=c1[nH]ncc(Br)c1Br ?
Reply: no (0)

Ask: What do we get for N#Cc1c(-c2ccc(F)cc2)nc(N/N=C/c2c[nH]c3ccccc23)nc1N1CCOCC1 ?
Reply: no (0)

Ask: What do we get for O=C1c2cc(Cl)ccc2S(=O)(=O)c2c(NCCCNCCO)nc3ccccc3c21 ?
Reply: no (0)

Ask: What do we get for C=CCCCCCCCCC(=O)[O][Sn]([CH2]CCC)([CH2]CCC)[CH2]CCC ?
Reply: yes (1)

Ask: What do we get for CCC[CH2][Sn]([CH2]CCC)([O]C(=O)c1cccnc1SC)[O]C(=O)c1cccnc1SC ?
Reply: yes (1)

Ask: What do we get for Cn1c2ccccc2c2c(-c3ccccc3)[n+]3ccncc3nc21 ?
Reply: no (0)

Ask: What do we get for O=c1/c(=C/c2ccco2)sc2nc3ccccc3n12 ?
Reply: no (0)

Ask: What do we get for OCc1c[nH]c2ccccc12 ?
Reply: no (0)

Ask: What do we get for C=CC(=O)N1CC2(CCN(c3nc(OC4CCN(CCCOC)CC4)nc4c(OCC(F)(F)F)c(-c5c(C)ccc6[nH]ncc56)c(C5CC5)cc34)CC2)C1 ?
Reply: no (0)

Ask: What do we get for NC(=O)c1ccc(I)c(N)c1 ?
Reply: no (0)

Ask: What do we get for CC[C@@]1(O)C(=O)OCc2c1cc1n(c2=O)Cc2c-1nc1cc3c(cc1c2CCl)OCO3 ?
Reply: yes (1)

Ask: What do we get for CC/C(=C(/c1ccc(O)cc1)c1ccc(OCCNC)cc1)c1ccccc1 ?
Reply: no (0)
